tested on: OVCAR-3 ovarian; experiment: NCI-60 one-dose screen, 48 h (100 = growth as untreated, 0 = no growth, -100 = all killed); settings: 10 µM unless noted
The panel holds about 83,000 compounds, 20% with a hit somewhere; the sample as a whole holds those more often. Active and inactive are the calls of the source. Rule for the calls: active = growth percent below 10; inactive = the rest.
measurement-type: growth

molecule=O=C(Nc1ccc(N=Cc2c(O)[nH]c3ccccc23)cc1)Nc1nccs1 result="15.4% (inactive)"
molecule="Cc1ccc2c(c1)Oc1nc(N)c(C#N)c(N)c1C2Sc1ccc(F)cc1 (stereo not given)" result="-88.1% (active)"
molecule=C=CC(=O)N1CCC=C(c2cc3c(N[C@H](C)c4ccccc4)ncnc3[nH]2)C1 result="56.2% (inactive)"
molecule=COc1cccc(N2CCN(c3ncnc4c3[nH]c3ccc(F)cc34)C[C@H]2C)c1 result="69.4% (inactive)"

Turning now to a further molecule:
Enquiry: Provide growth value for the following molecule: NC(N)=Nc1ccc(Oc2ccc(Nc3ccc(Cl)c(C(F)(F)F)c3)cc2)cc1
Return: -21.8% (active)

* * *

system: MOLT-4 leukemia; experiment: NCI-60 one-dose screen, 48 h (100 = growth as untreated, 0 = no growth, -100 = all killed); conditions: 10 µM unless noted
This is part of a sample that, as a whole, favours compounds with a hit. Of some 83,000 tested, about 20% had one in any assay.
measurement-type: growth (%)
Numbers only, in %.

Example cases with answers are listed next.
compound=NC(=O)c1cccc(-n2ccc3cc(NC(=O)Nc4ccc(N5CCOCC5)c(C(F)(F)F)c4)ccc32)n1 target="MOLT-4 leukemia" measured_number=-38.9
compound=Cc1ccc(S(=O)(=O)N(CC[C@@H]2C[C@H]2c2cc3ccccc3o2)S(=O)(=O)c2ccc(C)cc2)cc1 target="MOLT-4 leukemia" measured_number=88.8
compound=CCN1CCN(Cc2cn(-c3ccc(S(N)(=O)=O)cc3)nn2)CC1 target="MOLT-4 leukemia" measured_number=104

Dear reader, for each entry below, please note its growth.
1. Cc1ccc(C(=O)NN2C(=O)/C(=C/C=C/c3ccco3)SC2=S)cc1
2. COc1cc2oc(-c3cccc(C(=O)N[C@@H](CC(C)C)C(=O)OC(C)(C)C)c3)cc(=O)c2c(OC)c1OC
3. CNC1CCc2c(sc(NC(=O)c3ccc(C(C)(C)C)cc3)c2C(N)=O)C1 (centres undefined)
4. COc1c(N2CC3CCCNC3C2)c(F)cc2c(=O)c(C(=O)N/N=C/c3c[nH]c4ccccc34)cn(C3CC3)c12 (centres undefined)
5. O=C(NNc1nc2cc(F)ccc2n2c(CN3CCCC3)ccc12)c1cnccn1
6. COc1ccc(OC)c(-c2nc(SCC(=O)c3ccc(Br)cc3)nc(Nc3ccc(S(N)(=O)=O)cc3)c2C#N)c1

Return:
40.7
62.1
0.786
74.1
1.81
28.5

* * *

Please provide measured growth for the entries that follow.
test system: RXF 393 renal; assay: NCI-60 one-dose screen, 48 h (100 = growth as untreated, 0 = no growth, -100 = all killed); conditions: 10 µM unless noted
This is part of a sample that, as a whole, favours compounds with a hit. Of some 83,000 tested, about 20% had one in any assay.
One number for each entry, in %.

Example cases with answers are listed next.
compound=CN1CCC(n2cc(Nc3ncc4c(=O)n(-c5c(Cl)cccc5Cl)cc(Br)c4n3)cn2)CC1 measurement_type=growth scale_unit=% measured_number=-58.3
compound=C=CC(=O)N1CC=C(c2cc3c(N[C@H](C)c4ccccc4)ncnc3[nH]2)CC1 measurement_type=growth scale_unit=% measured_number=-27.6
compound=Nc1ccccc1NC(=O)c1ccc(NC(=O)C/C=C/c2cccnc2)cc1 measurement_type=growth scale_unit=% measured_number=-13.9
compound=O=C(CN1CCN(c2cc(=O)[nH]c3ccc(F)cc23)CC1)Nc1ccc(Cl)cc1 measurement_type=growth scale_unit=% measured_number=-3.61

Enquiry: Provide growth value for the following compound: CNCc1cccc2c1OCCCCCCC(C)(O)CC(C)(C)S(=O)(=O)c1ccc(cc1)-c1cnc(N)c(n1)C(=O)N2 (stereo not given)
Return: -90.7
